Hey, just so you know, these numbers are from patent US9765075B2.

# Target entity: full-length hSIRT1 WT (Homo sapiens, UniProt Q96EB6)
# Construct: Full-length human SIRT1 (hSIRT1) proteins were expressed with a C-terminal His6 tag; His6 (C)
# Experiment: SIRT1 activation dose-response, OAcADPr assay with Ac-p53(W5) substrate
# Assay setup: hSIRT1 WT; activation dose-response, Ac-p53(W5) substrate
Readout label: pEC50
Recall that pEC50 is obtained by taking minus log10 of the concentration measured in molar.

1) O=C(Nc1ccccn1)N1c2nc(-c3cccc(C(F)(F)F)c3)ccc2N2CC[C@H]1C2 | 5.66

Kindly consider the entry below.
Request: pEC50, test system full-length hSIRT1 WT (Homo sapiens, UniProt Q96EB6), entry Cc1cnc2c(NC(=O)N3c4nc(-c5cccc(C(F)(F)F)c5)ccc4N4CC[C@H]3C4)cccc2n1
6.32

---

# Target entity: SIRT1 (Homo sapiens, UniProt Q96EB6)
# Experiment: Trp mass spectrometry assay (SIRT1 activation)
# Type: biochemical
# Assay setup: concentration of test compound that results in 150% activation of SIRT1; Trp peptide substrate
Readout label: Tryp AVG EC1.5 (μM)

1) N#Cc1cccc(-c2ccc3c(n2)N(C(=O)Nc2ccc(F)cn2)[C@@H]2CCCN3C2)c1 [Example 227] | B (EC1.5 1-25 μM)
2) CC(=O)O[C@@H]1CN2C[C@H]1N(C(=O)Nc1ccccn1)c1nc(-c3cccc(C(F)(F)F)c3)ccc12 [Example 602] | B (EC1.5 1-25 μM)
3) O=C(Nc1cnccn1)N1c2nc(-c3ccnc(N4CC[C@@H](F)C4)c3)ccc2N2CC[C@H]1C2 [Example 462] | B (EC1.5 1-25 μM)

---

# Target entity: SIRT1 (Homo sapiens, UniProt Q96EB6)
# Sequence (Q96EB6 1-747): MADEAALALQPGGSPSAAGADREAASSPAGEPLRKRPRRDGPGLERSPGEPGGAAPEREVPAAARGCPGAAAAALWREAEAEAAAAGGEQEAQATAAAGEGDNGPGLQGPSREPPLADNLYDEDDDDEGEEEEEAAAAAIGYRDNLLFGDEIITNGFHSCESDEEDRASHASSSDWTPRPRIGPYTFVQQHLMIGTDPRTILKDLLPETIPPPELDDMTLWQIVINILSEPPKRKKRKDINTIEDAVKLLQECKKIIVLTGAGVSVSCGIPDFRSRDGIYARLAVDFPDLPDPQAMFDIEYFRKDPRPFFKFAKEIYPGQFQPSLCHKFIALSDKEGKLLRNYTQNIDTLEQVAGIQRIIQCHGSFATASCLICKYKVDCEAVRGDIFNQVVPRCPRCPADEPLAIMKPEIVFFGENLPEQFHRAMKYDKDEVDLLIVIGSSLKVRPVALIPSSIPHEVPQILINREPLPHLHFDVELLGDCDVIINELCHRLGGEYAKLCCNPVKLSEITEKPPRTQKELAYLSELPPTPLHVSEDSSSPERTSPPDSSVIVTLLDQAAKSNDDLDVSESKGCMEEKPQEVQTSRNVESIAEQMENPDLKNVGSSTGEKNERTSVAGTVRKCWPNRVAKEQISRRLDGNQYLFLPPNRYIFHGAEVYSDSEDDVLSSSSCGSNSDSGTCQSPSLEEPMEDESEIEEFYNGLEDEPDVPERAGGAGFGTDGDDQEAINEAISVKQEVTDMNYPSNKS
# Experiment: Trp mass spectrometry assay (SIRT1 activation)
# Assay type: biochemical
# Assay setup: Trp mass spectrometry assay; EC1.5 = concentration of test compound that results in 150% activation of SIRT1
Readout label: Tryp AVG EC1.5 (μM)

Example results:
1. Cc1cc(C(F)(F)F)nc(NC(=O)N2c3nc(-c4cccc(C(F)(F)F)c4)ccc3N3CC[C@H]2C3)n1 [Example 94] | B (EC1.5 1-25 μM)
2. COc1cc(NC(=O)N2c3nc(-c4cccc(C#N)c4)ccc3N3CC[C@H]2C3)ncn1 [Example 140] | A (EC1.5<1 μM)
3. O=C(Nc1ccccn1)N1c2nc(-c3ccccc3C(F)(F)F)ccc2N2CC[C@H]1C2 [Example 137] | C (EC1.5>25 μM)
4. CCN(CC)C(=O)N1c2nc(-c3cccc(C(F)(F)F)c3)ccc2N2CC[C@H]1C2 [Example 52] | C (EC1.5>25 μM)
5. O=C(Nc1cccc(-c2cnco2)c1)N1c2nc(-c3cccc(C(F)(F)F)c3)ccc2N2CC[C@H]1C2 [68 (1)] | A (EC1.5<1 μM)

What does the record list as Tryp AVG EC1.5 (μM) for N#Cc1cccc(-c2ccc3c(n2)N(C(=O)Nc2cccnc2)[C@H]2CCN3C2)c1 [Example 180] ?
A (EC1.5<1 μM)

If you can, please state the reported Tryp AVG EC1.5 (μM) value of O=C(Nc1cnccn1)N1c2nc(-c3cccc(N4CCCC4)c3)ccc2N2CC[C@H]1C2 [Example 206] .
B (EC1.5 1-25 μM)

For the molecule shown here, O=C(Nc1cccnc1)N1c2nc(C3CCCC(C(F)(F)F)C3)ccc2N2CC[C@H]1C2 (stereo partly shown) [Example 99] , give the reported Tryp AVG EC1.5 (μM).
A (EC1.5<1 μM)

Fill in: Tryp AVG EC1.5 (μM) of CN(C)c1cc(NC(=O)N2c3nc(N4CCCC(C(F)(F)F)C4)ccc3N3CC[C@H]2C3)ccn1 (stereo partly shown) [Example 216] is ___
A (EC1.5<1 μM)

Could you tell me which Tryp AVG EC1.5 (μM) is on file for O=C(Nc1ccncn1)N1c2nc(-c3cccc(OC(F)(F)F)c3)ccc2N2CC[C@H]1C2 [Example 166] ?
A (EC1.5<1 μM)

Entry N#Cc1cccc(-c2ccc3c(n2)N(C(=O)Nc2cccc(-c4cnco4)c2)[C@H]2CCN3C2)c1 [Example 178] has what Tryp AVG EC1.5 (μM)?
A (EC1.5<1 μM)

Fill in: Tryp AVG EC1.5 (μM) of COc1cc(NC(=O)N2c3nc(-c4cccc(Cl)c4)ccc3N3CC[C@H]2C3)ncn1 [Example 104] is ___
B (EC1.5 1-25 μM)

Query: Tryp AVG EC1.5 (μM); subject: O=C(Nc1cccnc1)N1c2nc(-c3cccc(C(F)(F)F)c3)ccc2N2CCC[C@@H]1C2 [Example 194]
A (EC1.5<1 μM)

What does the record list as Tryp AVG EC1.5 (μM) for O=C(Nc1ccncn1)N1c2nc(-c3cccc(C(F)(F)F)c3)ccc2N2CCC1CC2 [Example 172] ?
B (EC1.5 1-25 μM)

GET /values?readout=Tryp AVG EC1.5 (μM)&item= Cn1cc(NC(=O)N2c3nc(-c4cccc(C#N)c4)ccc3N3CC[C@H]2C3)cn1 [Example 186]
B (EC1.5 1-25 μM)

For the molecule Cc1nc(NC(=O)N2c3nc(N4CCCC(C(F)(F)F)C4)ccc3N3CC[C@H]2C3)sc1C (stereo partly shown) [Example 215] , what Tryp AVG EC1.5 (μM) is on record?
B (EC1.5 1-25 μM)

---

# Target entity: UniProt:Q96EB6
# Experiment: Trp mass spectrometry assay (SIRT1 activation)
# Format: biochemical
# Assay setup: Trp mass spectrometry assay; percent maximum fold activation of SIRT1; read-out: Tryp % Fold Act
Readout label: Emax

I'd like to know its Emax. The compound in question is O=C(Nc1cncc(F)c1)N1c2nc(-c3cncc(C(F)(F)F)c3)ccc2N2C[C@@H](O)[C@H]1C2
≥ 150%

---

# Target entity: SIRT1 (Homo sapiens)
# Experiment: Trp mass spectrometry assay (SIRT1 activation)
# Assay type: biochemical
# Assay setup: Trp mass spectrometry assay; EC1.5 = concentration giving 150% activation of SIRT1
Readout label: Tryp AVG EC1.5 (μM)

1. O=C(Nc1ccccn1)N1c2nc(-c3cncc(C(F)(F)F)c3)ccc2N2C[C@@H](O)[C@H]1C2 | A (EC1.5<1 μM)
2. Cc1cc(-c2ccc3c(n2)N(C(=O)Nc2cncc(-c4cnco4)c2)[C@H]2CCN3C2)ccn1 | A (EC1.5<1 μM)
3. O=C(Nc1cccc(-c2cnco2)c1)N1c2nc(N3CCC[C@@H](C(F)(F)F)C3)ccc2N2CC[C@H]1C2 | A (EC1.5<1 μM)
4. Cc1nc(NC(=O)N2c3nc(-c4cncc(C(F)(F)F)c4)ccc3N3C[C@@H](O)[C@H]2C3)sc1C | B (EC1.5 1-25 μM)
5. O=C(Nc1cccc(-c2ccccc2)c1)N1c2nc(-c3cccc(C(F)(F)F)c3)ccc2N2CC[C@H]1C2 | A (EC1.5<1 μM)

I'd like to know its Tryp AVG EC1.5 (μM). The molecule in question is O=C(Nc1cccnn1)N1c2nc(-c3cccc(Cl)c3)ccc2N2C[C@@H](O)[C@H]1C2
B (EC1.5 1-25 μM)

---

# Target entity: SIRT1 (Homo sapiens)
# Experiment: Trp mass spectrometry assay (SIRT1 activation)
# Format: biochemical
# Assay setup: Trp mass spectrometry assay; EC1.5 = concentration giving 150% activation of SIRT1
Readout label: Tryp AVG EC1.5 (μM)

# annotated cases, reported Tryp AVG EC1.5 (μM) shown
1. O=C(Nc1ccncc1)N1c2nc(-c3cccc(C(F)(F)F)c3)ccc2N2CCC[C@H]1C2 [Example 821] | A (EC1.5<1 μM)
2. O=C(Nc1ccncn1)N1c2nc(-c3cccc(Cl)c3)ccc2N2C[C@@H](O)[C@H]1C2 [Example 684] | B (EC1.5 1-25 μM)
3. O=C(Nc1cccc(-c2cnco2)c1)N1c2nc(N3CCCN(CC(F)(F)F)CC3)ccc2N2CC[C@H]1C2 [Example 741] | A (EC1.5<1 μM)
4. Cc1nc(NC(=O)N2c3nc(-c4cccc(Cl)c4)ccc3N3C[C@@H](O)[C@H]2C3)sc1C [Example 688] | B (EC1.5 1-25 μM)

Item CC(C)(C)OC(=O)NCCNC(=N)c1ccc(NC(=O)N2c3nc(-c4cccc(C(F)(F)F)c4)ccc3N3CCC[C@H]2C3)cc1 [Example 788] has what recorded Tryp AVG EC1.5 (μM)?
A (EC1.5<1 μM)
